Entry source: PubChem BioAssay (NCI)

- System: MALME-3M melanoma
- test-description: NCI-60 one-dose screen, 48 h (100 = growth as untreated, 0 = no growth, -100 = all killed)
- run-parameters: 10 µM unless noted
Compounds without any hit were thinned out: in the full panel of roughly 83,000, 20% have a hit.
Form field: growth (one value per entry).
observed-property: growth (%)

>>> reported_result("Clc1ccc(CN2COc3c(ccc4cccnc34)C2)cc1Cl")
-11.3
>>> reported_result("O=S(=O)(O)c1ccc(F)cc1")
90.7
>>> reported_result("COc1ccc(Cl)cc1NC(=O)c1cc2c(n1C)-c1nc(NC(=O)C(C)(C)C)sc1CC2")
106
>>> reported_result("COc1cccc(/C=N/C(=S)NC2(C)C3CCC(C3)C2(C)C)c1O (configuration not stated)")
89.8
>>> reported_result("Nc1nc(Nc2ccc(OCc3cccc(F)c3)cc2)c2c(n1)[nH]c1ccc(O)cc12")
-69.5
>>> reported_result("COc1ccc(-c2nn(-c3ccc(NC(=O)c4cc(Cl)cc(Cl)c4)cc3)cc2-c2ccncc2)cc1Cl")
89.9
>>> reported_result("Clc1ccc(OCc2nc(-c3ccccc3)n[nH]2)c(Cl)c1")
104
>>> reported_result("O=[N+]([O-])c1cccc(C2c3ccccc3Oc3ccccc32)c1")
101
>>> reported_result("C=CCn1c(SCC(=O)Nc2ccc(/C(C)=N\\O)cc2)nnc1-c1cc(-c2ccc(OC)cc2)nc2ccccc12")
66.4
>>> reported_result("O=C(O)c1cccc2oc(-c3ccccc3O)nc12")
70.9
>>> reported_result("O=C(O)c1ccc(-c2nn(-c3ccc(C(=O)O)cc3)cc2/C=N/Nc2c(F)c(F)cc(F)c2F)cc1")
93.7
>>> reported_result("S=c1ssnc1-c1ccccn1")
52
>>> reported_result("O=C(NC(=S)Nc1ccc(Cl)cc1)c1ccccc1")
112
>>> reported_result("COc1ccc(OCC(O)CN2CCN(c3ccc(Cl)cc3)CC2)cc1 (configuration not stated)")
106
>>> reported_result("CCCCNc1cc(C(=O)O)cc(S(N)(=O)=O)c1Oc1ccccc1")
96.2
>>> reported_result("FC(F)(F)c1cn(CC2CNC2)c2ncnc(Cl)c12")
122
>>> reported_result("c1ccc([Se]CCCN2CCN(CCC[Se]c3ccccc3)CC2)cc1")
123
>>> reported_result("COc1ccc(-c2ccc(NC(=O)Nc3cccc(C(F)(F)F)c3)c(C)n2)cc1")
90.6
>>> reported_result("S=c1[nH]nc(Cn2c3ccccc3c3ccncc32)o1")
100
>>> reported_result("Cc1ccc2c(C3C(C#N)=C(N)Oc4cc5ccccc5cc43)cc(=O)oc2c1 (configuration not stated)")
66.4
>>> reported_result("Nc1nc(-c2cc3c(cc2Cl)NC(=O)/C3=C/c2ccc(Cl)cc2)cs1")
56.2
>>> reported_result("Cc1cc(N2CCOCC2)nc(N(CCNc2ccnc3cc(Cl)ccc23)Cc2ccco2)n1")
62.8
